Where do these numbers come from? They come from paper PMC6222487.

target: AChE (from electric eel) (Electrophorus electricus, UniProt O42275); construct: purchased Merck & Co; assay: biochemical; assay type: biochemical; conditions: IC50 BuChE/IC50 AChE
Sequence (O42275 24-633): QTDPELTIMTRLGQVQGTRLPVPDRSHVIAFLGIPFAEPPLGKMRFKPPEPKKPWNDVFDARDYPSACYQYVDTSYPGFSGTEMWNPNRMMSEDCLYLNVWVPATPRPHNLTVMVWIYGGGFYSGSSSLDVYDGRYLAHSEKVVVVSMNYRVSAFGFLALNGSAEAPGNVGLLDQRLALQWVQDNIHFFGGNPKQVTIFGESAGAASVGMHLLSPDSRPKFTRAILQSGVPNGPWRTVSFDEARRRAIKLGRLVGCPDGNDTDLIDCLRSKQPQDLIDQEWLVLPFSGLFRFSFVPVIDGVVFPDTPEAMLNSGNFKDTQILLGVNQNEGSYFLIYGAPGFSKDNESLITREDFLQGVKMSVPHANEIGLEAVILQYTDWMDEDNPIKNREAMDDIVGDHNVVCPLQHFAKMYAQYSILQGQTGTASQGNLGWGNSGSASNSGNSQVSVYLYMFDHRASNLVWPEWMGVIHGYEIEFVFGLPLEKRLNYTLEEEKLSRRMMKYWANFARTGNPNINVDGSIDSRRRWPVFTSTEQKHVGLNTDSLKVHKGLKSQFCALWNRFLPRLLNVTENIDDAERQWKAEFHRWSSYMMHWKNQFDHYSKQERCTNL
Attribute measured: Selectivity Index = IC50 (BChE)/IC50 (AChE)

Compound | Result
Cc1nc(C)c(C(=O)OCCCOC(=O)c2cccc(F)c2)nc1C [Compound 8k] | 9.49
Cc1nc(C)c(C(=O)OCCCOC(=O)c2ccc(Br)cc2)nc1C [Compound 8h] | 2.62
COc1ccc(C(=O)OCCCOC(=O)c2nc(C)c(C)nc2C)cc1F [Compound 8j] | 2.97
Cc1nc(C)c(C(=O)OCCCOC(=O)c2cccc(Br)c2)nc1C [Compound 8g] | 6.23
Cc1nc(C)c(C(=O)OCCCOC(=O)Cc2ccc(Br)cc2)nc1C [Compound 8m] | 52.17
COc1ccc(CC(=O)OCCCOC(=O)c2nc(C)c(C)nc2C)cc1F [Compound 8n] | 20.67

* * *

molecular target: BuChE (from equine serum) (Equus caballus); experiment: biochemical; conditions: mean ± SEM
Sequence (P81908 whole entry): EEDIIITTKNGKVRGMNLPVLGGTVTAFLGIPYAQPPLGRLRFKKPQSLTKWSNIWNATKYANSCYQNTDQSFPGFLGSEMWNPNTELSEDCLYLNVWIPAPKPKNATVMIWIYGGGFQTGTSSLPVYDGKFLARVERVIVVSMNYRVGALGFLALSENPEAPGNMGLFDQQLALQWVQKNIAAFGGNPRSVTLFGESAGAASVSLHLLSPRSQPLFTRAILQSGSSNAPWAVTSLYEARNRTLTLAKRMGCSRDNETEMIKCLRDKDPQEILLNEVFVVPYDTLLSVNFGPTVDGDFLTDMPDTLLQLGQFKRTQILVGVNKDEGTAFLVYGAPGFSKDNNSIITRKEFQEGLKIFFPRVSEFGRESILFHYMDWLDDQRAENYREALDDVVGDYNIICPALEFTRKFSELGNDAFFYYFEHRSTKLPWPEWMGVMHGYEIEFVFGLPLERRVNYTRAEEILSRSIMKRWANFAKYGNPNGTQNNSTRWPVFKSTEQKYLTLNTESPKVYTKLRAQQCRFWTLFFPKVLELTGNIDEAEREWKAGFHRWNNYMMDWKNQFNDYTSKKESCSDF
pIC50: −log10 of the molar value.
Each entry below carries its recorded pIC50.
Attribute measured: pIC50

Mol | Result
COc1cc(/C=C/C(=O)OCCCOC(=O)c2nc(C)c(C)nc2C)cc(OC)c1OC | 2.40
COc1cc(CC(=O)OCCCOC(=O)c2nc(C)c(C)nc2C)cc(OC)c1OC | 2.40
COc1ccc(/C=C/C(=O)OCCCOC(=O)c2nc(C)c(C)nc2C)cc1OC | 2.40
Cc1nc(C)c(/C=C/C(=O)OCCCOC(=O)c2nc(C)c(C)nc2C)nc1C | 2.39

* * *

Target: AChE (from electric eel) (Electrophorus electricus)
Construct: purchased Merck & Co
Test: biochemical
Assay type: biochemical
Conditions: IC50 BuChE/IC50 AChE
Procedure: Photometric 96-well microplates made from polystyrene (Thermo Scientific, Waltham, […]. USA) were used for measurement purposes. AChE and BuChE inhibitory activities were measured by the spectrophotometric method of Ellman, with slight modification. […] The activity was determined by measuring the increase in absorbance at 410 nm at 1 min intervals at 37 °C. The data were calculated according to the method described by Ellman et al. Each concentration was assayed in triplicate. […]
Each entry below carries its recorded Selectivity Index = IC50 (BChE)/IC50 (AChE).
Attribute measured: Selectivity Index = IC50 (BChE)/IC50 (AChE)

Molecule | Result
COc1cc(/C=C/C(=O)OCCCOC(=O)c2nc(C)c(C)nc2C)cc(OC)c1OC [Compound 8p] | 4.30 × 10^4
Cc1nc(C)c(C(=O)OCCCOC(=O)c2cccc(Cl)c2)nc1C [Compound 8f] | 4.95 × 10^5
COc1cc(CC(=O)OCCCOC(=O)c2nc(C)c(C)nc2C)cc(OC)c1OC [Compound 8l] | 1.31 × 10^4
COc1cccc(OC)c1C(=O)OCCCOC(=O)c1nc(C)c(C)nc1C [Compound 8e] | 2.36 × 10^3
